# Measured target: AM2 receptor (1321N1 cells transfected with CALCRL+RAMP3) (Homo sapiens, UniProt O60896+Q16602)
# Construct: host or cells: 1321N1 cells
# Sequence (Q16602 23-461): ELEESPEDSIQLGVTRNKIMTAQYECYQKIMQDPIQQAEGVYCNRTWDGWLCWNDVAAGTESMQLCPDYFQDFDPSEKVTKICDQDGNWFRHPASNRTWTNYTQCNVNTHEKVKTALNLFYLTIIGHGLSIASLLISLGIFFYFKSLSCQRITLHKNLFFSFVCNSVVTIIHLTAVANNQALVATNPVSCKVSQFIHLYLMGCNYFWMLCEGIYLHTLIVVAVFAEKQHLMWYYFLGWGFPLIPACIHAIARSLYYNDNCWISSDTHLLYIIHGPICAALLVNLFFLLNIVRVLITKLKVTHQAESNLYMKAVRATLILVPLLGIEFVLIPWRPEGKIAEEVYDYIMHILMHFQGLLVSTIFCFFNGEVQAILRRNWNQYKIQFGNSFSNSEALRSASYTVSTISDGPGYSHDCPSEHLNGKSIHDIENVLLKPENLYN
# Sequence (O60896 24-148): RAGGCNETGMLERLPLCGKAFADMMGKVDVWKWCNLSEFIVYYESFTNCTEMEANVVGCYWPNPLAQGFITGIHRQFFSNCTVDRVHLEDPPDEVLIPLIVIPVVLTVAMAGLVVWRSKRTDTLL
# Assay info: AM2 receptor inhibition, LANCE cAMP agonist-antagonist competition assay
# Type: cell-based
# Test parameters: inhibition of AM induced cAMP activation, read-out: AM2 D2 protocol: pIC50 (converted)
# Description: Compounds were assessed for their ability to inhibit ligand-induced elevations of cAMP, using the Perkin Elmer LANCE cAMP assay using commercially-available cells expressing a specific receptor of interest using the following general procedure: […] The ability of a compound to inhibit the AM induced cAMP activation in AM2 receptor-expressing cells (1321N1 cells transfected with CALCRL+RAMP3, sourced from DiscoverX catalogue number 95-0169C6) was assessed using the protocol above.
Response field label takes y when IC50 is strictly below 10 nM and n in all other cases.

>>> df
                                smiles_text  assigned_label
0  CCC1(C(=O)N(CC(=O)Nc2ccc3c(c2)C[C@@]2(C3)C(=O)Nc3ncccc32)Cc2ccccc2CNC)CCN(C(=O)N2CCC(F)(F)C2)CC1               n
1  CNCc1ccccc1CN(CC(=O)Nc1ccc2c(c1)C[C@@]1(C2)C(=O)Nc2ncccc21)C(=O)C1(C)CCN(CC(=O)N2CCNCC2)CC1               n
2  CNCc1ccccc1CN(CC(=O)Nc1ccc2c(c1)C[C@@]1(C2)C(=O)Nc2ncccc21)C(=O)C1(C)CCN(C(=O)Cc2ccncc2)CC1               n
3  CCC1(C(=O)N(CC(=O)Nc2ccc3c(c2)C[C@@]2(C3)C(=O)Nc3ncccc32)Cc2ccccc2CNC)CCN(C(=O)C(C)(C)C)CC1               n
4  CCC1(C(=O)N(CC(=O)Nc2ccc3c(c2)C[C@@]2(C3)C(=O)Nc3ncccc32)Cc2ccccc2CNC)CCN(S(=O)(=O)NC)CC1               y
5  CNCc1ccccc1CN(CC(=O)Nc1ccc2c(c1)C[C@@]1(C2)C(=O)Nc2ncccc21)C(=O)C1(COC)CCN(C(C)=O)CC1               n
